tgt: GRK2 (Homo sapiens, UniProt P25098)
test: GRK2 Transcreener Assay
Type: biochemical
reported.conditions: Biological Example 2 GRK2 Transcreener IC50 (μM), 10 nM GRK2; 10 μM ATP; 150 μM peptide substrate; multiple measurements listed individually
measurement.name: IC50 (µM)

Worked cases, answers included:
compound: COc1cccc(CN2C(=O)c3cc(-c4cn[nH]c4)ccc3C23CC=CC3)c1 [Compound 6]
observed.measurement: 0.01
//
compound: COc1cccc(CN2C(=O)c3cc(-c4c[nH]nn4)ccc3C2(C)C)c1 [Compound 21]
observed.measurement: 0.054
//
compound: CCOc1cccc(CN2Cc3ccc(-c4cn[nH]c4)cc3C2=O)c1 [Compound 2]
observed.measurement: 0.009

A: COc1cccc(CN2Cc3ccc(-c4ccnc(N)n4)cc3C2=O)c1 [Compound 4]
B: CC(C)(C)OC(=O)c1cccc(CN2Cc3ccc(-c4cn[nH]c4)cc3C2=O)c1 [Compound 164]
C: O=C(O)c1cccc(CN2Cc3ccc(-c4cn[nH]c4)cc3C2=O)c1 [Compound 18]
D: NCc1cccc(CN2Cc3ccc(-c4cn[nH]c4)cc3C2=O)c1 [Compound 22]
Number of compounds to sort: 4. Sort criterion: IC50, ascending. Note for the reader: the ranking is given by listing the labels in the order requested.
A, C, B, D

A: CS(=O)(=O)Nc1cccc(CN2Cc3ccc(-c4ccnc5[nH]ccc45)cc3C2=O)c1 [Compound 10]
B: COc1cccc(CN2Cc3ccc(-c4c[nH]nn4)cc3C2=O)c1 [Compound 20]
Lab notebook, comparison: A versus B , higher IC50 goes to which? Please reply using the label of the selected record.
A
(A: 0.719 µM, B: 0.02 µM)

a: C[C@H](c1cccc2ccccc12)N1Cc2ccc(-c3cn[nH]c3)cc2C1=O [Compound 24]
b: COc1cccc(CN2C(=O)c3cc(-c4cn[nH]c4)ccc3C2(C)C)c1 [Compound 7]
Lab notebook, comparison: a versus b , higher IC50 goes to which? Please reply using the label of the selected record.
a

P: O=C1c2cc(-c3cn[nH]c3)ccc2CN1Cc1cccc(F)c1 [Compound 16]
Q: Cc1cccc([C@@H](C)N2Cc3ccc(-c4cn[nH]c4)cc3C2=O)n1 [Compound 25]
Param metric = IC50; output whichever of P , Q has the minimum value. Please reply using the label of the selected record.
P
(P: 0.017 µM, Q: 0.546 µM)

----------
tgt: UniProtKB P25098
test: hGRK2 LANCE Ultra In Vitro Assay
Format: biochemical
reported.conditions: Biological Example 1 GRK2 Lancer IC50 (μM), 10 nM GRK2; 30 or 600 μM ATP (not stated which); multiple measurements listed individually
measurement.name: IC50 (µM)
Express the result in µM but write the number alone.

Worked cases, answers included:
compound: COc1cccc([C@@H](C)N2Cc3ccc(-n4cn[nH]c4=O)cc3C2=O)c1 [Compound 40]
unit.spec: µM
IC50: 0.115

compound: COc1cccc([C@@H](C2CC2)N2Cc3ccc(-c4cn[nH]c4)cc3C2=O)c1 [Compound 96]
unit.spec: µM
IC50: 0.012

compound: COc1cccc(C(COCC(N)=O)N2Cc3ccc(-c4cn[nH]c4)cc3C2=O)c1 (stereo not drawn) [Compound 62]
unit.spec: µM
IC50: 0.007

compound: COc1cccc(C(CO)N2C(=O)c3cc(-c4cn[nH]c4)ccc3C23CC=CC3)c1 (stereo not drawn) [Compound 78]
unit.spec: µM
IC50: 0.06

compound: O=C1c2cc(-c3cn[nH]c3)ccc2CN1Cc1cccc(O)c1 [Compound 135]
unit.spec: µM
IC50: 0.005

GET /values?readout=IC50&item= O=C1c2cc(-c3cn[nH]c3)ccc2CN1Cc1cccc(OCc2nn[nH]n2)c1 [Compound 88]
0.029

GET /values?readout=IC50&item= CCOc1cccc([C@H](CO)N2Cc3ccc(-c4cn[nH]c4)cc3C2=O)c1 [Compound 112]
0.306

GET /values?readout=IC50&item= CC(C)NC(=O)c1cccc([C@@H](C)N2Cc3ccc(-c4cn[nH]c4)cc3C2=O)c1 [Compound 31]
5.38

GET /values?readout=IC50&item= O=C1c2cc(-c3cn[nH]c3)ccc2CN1Cc1cccs1 [Compound 28]
0.091

GET /values?readout=IC50&item= COc1cccc([C@@H](C)N2Cc3c(cc(-c4cn[nH]c4)cc3-c3ccnc(C(C)(C)C)c3)C2=O)c1 [Compound 154]
0.932

GET /values?readout=IC50&item= O=C1c2cc(-c3cn[nH]c3)ccc2CN1Cc1cccc(OC2CCOC2)c1 (stereo not drawn) [Compound 90]
0.137

GET /values?readout=IC50&item= COc1cccc(C(CN(C)C)N2Cc3ccc(-c4cn[nH]c4)cc3C2=O)c1 (stereo not drawn) [Compound 80]
0.044

----------
tgt: GRK2 (Homo sapiens, UniProt P25098)
Sequence (P25098 1-689): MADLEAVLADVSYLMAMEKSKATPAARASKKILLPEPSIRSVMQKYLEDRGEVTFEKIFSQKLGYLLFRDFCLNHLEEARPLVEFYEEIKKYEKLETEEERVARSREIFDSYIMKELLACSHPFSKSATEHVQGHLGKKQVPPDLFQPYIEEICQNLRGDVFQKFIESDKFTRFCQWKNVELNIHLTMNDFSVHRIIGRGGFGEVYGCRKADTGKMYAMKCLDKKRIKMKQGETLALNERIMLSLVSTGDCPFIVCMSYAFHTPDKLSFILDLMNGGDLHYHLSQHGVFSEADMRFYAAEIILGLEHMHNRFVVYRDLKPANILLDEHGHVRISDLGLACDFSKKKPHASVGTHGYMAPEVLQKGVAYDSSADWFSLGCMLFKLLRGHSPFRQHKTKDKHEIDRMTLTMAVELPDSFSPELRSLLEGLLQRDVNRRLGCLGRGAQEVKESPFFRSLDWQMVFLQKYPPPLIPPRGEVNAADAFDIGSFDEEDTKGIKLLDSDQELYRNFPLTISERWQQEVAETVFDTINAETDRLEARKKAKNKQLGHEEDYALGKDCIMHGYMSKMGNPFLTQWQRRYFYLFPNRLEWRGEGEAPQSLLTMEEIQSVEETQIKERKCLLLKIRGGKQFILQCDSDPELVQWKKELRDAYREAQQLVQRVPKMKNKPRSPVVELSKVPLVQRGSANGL
test: hGRK2 LANCE Ultra In Vitro Assay
Assay type: biochemical
reported.conditions: read-out: Biological Example 1 GRK2 Lancer IC50; 10 nM GRK2; 30 or 600 μM ATP (not stated which); multiple measurements listed individually
measurement.name: pIC50
By convention, pIC50 is the negative base-10 log of a molar concentration.

GET /values?readout=pIC50&item= COc1cccc([C@@H](C)N2Cc3c(cc(-c4cn[nH]c4)cc3C3CCNC3)C2=O)c1 (stereo partly shown) [Compound 144]
8.15

----------
tgt: GRK2 (Homo sapiens, UniProt P25098)
Sequence (P25098 1-689): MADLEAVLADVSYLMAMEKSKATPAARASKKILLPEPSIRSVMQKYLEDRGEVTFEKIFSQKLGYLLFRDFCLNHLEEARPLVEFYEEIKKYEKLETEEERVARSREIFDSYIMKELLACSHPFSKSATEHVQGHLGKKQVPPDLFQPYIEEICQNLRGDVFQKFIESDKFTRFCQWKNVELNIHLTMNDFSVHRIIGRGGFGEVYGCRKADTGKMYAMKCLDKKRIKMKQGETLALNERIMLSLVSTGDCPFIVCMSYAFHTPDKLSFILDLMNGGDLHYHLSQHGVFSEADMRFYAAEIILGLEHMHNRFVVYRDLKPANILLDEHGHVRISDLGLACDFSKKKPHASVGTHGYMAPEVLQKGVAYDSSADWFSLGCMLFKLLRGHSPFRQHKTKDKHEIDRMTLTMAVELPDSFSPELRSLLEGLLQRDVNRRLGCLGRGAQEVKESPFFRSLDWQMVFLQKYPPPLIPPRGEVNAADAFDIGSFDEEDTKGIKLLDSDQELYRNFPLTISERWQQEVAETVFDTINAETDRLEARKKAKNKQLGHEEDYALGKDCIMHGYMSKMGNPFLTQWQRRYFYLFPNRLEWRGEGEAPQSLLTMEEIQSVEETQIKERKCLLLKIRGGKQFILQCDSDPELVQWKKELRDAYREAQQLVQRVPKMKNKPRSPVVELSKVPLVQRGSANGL
test: hGRK2 LANCE Ultra In Vitro Assay
Format: biochemical
reported.conditions: Biological Example 1 GRK2 Lancer IC50 (μM), 10 nM GRK2; 30 or 600 μM ATP (not stated which); multiple measurements listed individually
Below: a set of entries, each annotated with reported IC50.
Express the result in µM but write the number alone.

Worked cases, answers included:
compound: COc1cccc(CN2C(=O)c3cc(-c4cn[nH]c4)ccc3C23CCOCC3)c1 [Compound 82]
unit.spec: µM
IC50: 0.007
//
compound: COc1cccc([C@@H](C)N2Cc3c(cc(-c4cn[nH]c4)cc3-c3ccc(C(C)(C)O)nc3)C2=O)c1 [Compound 141]
unit.spec: µM
IC50: 0.02
//
compound: COc1cccc(C(c2nn[nH]n2)N2Cc3ccc(-c4cn[nH]c4)cc3C2=O)c1 (centres unmarked) [Compound 94]
unit.spec: µM
IC50: 0.652
//
compound: COc1cccc(C(CO)N2Cc3c(cc(-c4cn[nH]c4)cc3-c3cccnc3)C2=O)c1 (centres unmarked) [Compound 142]
unit.spec: µM
IC50: 0.008
//
compound: COc1cccc(CN2C(=O)c3cc(-c4cn[nH]c4)ccc3C23CCC2NC(=O)OC23)c1 (centres unmarked) [Compound 150]
unit.spec: µM
IC50: 0.013

GET /values?readout=IC50&item= COc1cccc(CN2C(=O)c3cc(-c4cn[nH]c4)ccc3C23CCC(C(N)=O)C3)c1 (centres unmarked) [Compound 108]
0.004

GET /values?readout=IC50&item= CCOc1cccc([C@@H](CO)N2Cc3ccc(-c4cn[nH]c4)cc3C2=O)c1 [Compound 114]
0.006

GET /values?readout=IC50&item= COc1cccc([C@@H](C)N2C(=O)c3cc(-c4cn[nH]c4)ccc3C23CCCC3)c1 [Compound 122]
1.18

GET /values?readout=IC50&item= O=C(O)COc1cccc(CN2Cc3ccc(-c4ccnc5[nH]ccc45)cc3C2=O)c1 [Compound 57]
2.56

GET /values?readout=IC50&item= COc1ccnc(CN2Cc3ccc(-c4cn[nH]c4)cc3C2=O)c1 [Compound 105]
0.071

GET /values?readout=IC50&item= COc1cccc(C(CO)N2Cc3c(cc(-c4cn[nH]c4)cc3-c3cccc(O)c3)C2=O)c1 (centres unmarked) [Compound 143]
0.005

GET /values?readout=IC50&item= COc1cccc(CN2C(=O)c3cc(-c4cn[nH]c4)ccc3C23CCC(O)C3)c1 (centres unmarked) [Compound 46]
0.007
